// data source = the supplement of paper PMC12042874

Assay: amyloid nucleation score (Sup35N fusion, yeast selection) (log enrichment); library NNK1; higher = more nucleation; inactive = no reads after selection;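 further: zero at mode of non-aggregating sequences after 7 days selection at 30°C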
For each of the sequences below, state its amyloid nucleation score.
Response field accepts a number only; no unit should be typed.

// field: amyloid nucleation score; key: FRWPSLLGNLLKLGVDTAD ; value = -0.126

amyloid nucleation score reading for HFYSGECVFRGACRYQRRGH : 0.402

Kindly note the recorded amyloid nucleation score for TFSQWWVRSCFGTRMNWCLV , which is 0.174

---

Test: amyloid nucleation score (Sup35N fusion, yeast selection) (log enrichment); library NNK2; higher = more nucleation; inactive = no reads after selection
metric: amyloid nucleation score
In your answer, state the number alone without any accompanying words.

Reported amyloid nucleation score ( IHLRWPMKRLVYTYCFYFYS ) = -0.788

Sure, the documented amyloid nucleation score for YRKHRLLH is -0.893

get_value(item= CGPPVIWVLLCKLGMFWTVS , readout=amyloid nucleation score) returns -0.555
